We begin with a simple list: items and their reported melting point.
Where a name gives a salt, the structure may show the parent alone.

Solved cases below.
>>> test_value("COc1cc(/C=C/C(=O)OCCCCCCCN(CCCOC(=O)c2c3ccccc3cc3ccccc23)CCCOc2ccc3ccc(=O)oc3c2)cc(OC)c1OC (as salt: hydrochloride)")
"100 to 102 °C"
>>> test_value("COc1cc(/C=C/C(=O)OCCCCCN(CCCOC(=O)c2cc(OC)c(OC)c(OC)c2)CCCOc2ccc3ccc(=O)oc3c2)cc(OC)c1OC (as salt: hydrochloride)")
"128 to 131 °C"

Next:
Name the recorded melting point of the item O=C(OCCCCCCCN(CCCOC(=O)c1c2ccccc2cc2ccccc12)CCCOc1ccc2ccc(=O)oc2c1)c1c2ccccc2cc2ccccc12 (as salt: hydrochloride) in your answer.
117 to 119 °C
